B1: KLHL14 (parent)
chain: NETGYLSSVECYNLETNEWRYVSS

Variants of: B1
Assay: protein stability index of a GFP-peptide fusion (GPS, HEK-293T) (PSI 1-6); higher = more stable;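 further: lentivirally expressed fusions sorted by FACS into six bins by GFP to DsRed ratio, PSI derived from sequencing read proportions per bin multiplied by bin number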
Conditions: c terminus: a fixed tail appended
protein stability index of 3 or higher: condition met. Under 3: condition not met.

As a guide, the following entries are already answered.
{"columns": ["MUTATION", "GROUP LABEL"],
 "data": [
  ["S7H", "condition not met"],
  ["L14A", "condition met"],
  ["Y12K", "condition met"],
  ["V9A", "condition met"]
]}

**Query** Reported protein stability index reaches at least 3 for `S7Y` ?
**Result** condition not met

**Query** Quick check, protein stability index >= 3? `N17Q`
**Result** condition met

**Query** Assess whether reported protein stability index for `L14C` sits at 3 or higher.
**Result** condition met

**Query** # bool: protein stability index of `Y5V` >= 3
**Result** condition met

**Query** Decide: is the reported value of protein stability index for `N1W` equal to or greater than 3?
**Result** condition not met

**Query** For this variant, is measured protein stability index 3 or higher? `S7R`
**Result** condition met

**Query** Determine whether this variant has protein stability index no lower than 3: `V9H`
**Result** condition met

**Query** Tell me whether protein stability index is at least 3 here: `T3E`
**Result** condition met

**Query** # check: protein stability index of `L6P` is greater than or equal to 3
**Result** condition met

**Query** Would you say `N17D` shows protein stability index at minimum 3?
**Result** condition met

**Query** Can `Y12H` be said to have protein stability index at or above 3?
**Result** condition met

**Query** Evaluate `C11T` : protein stability index at minimum 3?
**Result** condition met

**Query** # bool: protein stability index of `E10C` >= 3
**Result** condition not met

**Query** Assess whether reported protein stability index for `N17W` sits at 3 or higher.
**Result** condition not met
